# assay-details: Plasma concentration in ventricular arrthymia patient at 1.4 mg/min, iv administered for 36 hrs measured after 30 hrs
# Type: ADME, organism-based
# condition: human

structure-as-smiles | unit-of-measure | concentration at 30 h
CCNCC(=O)Nc1c(C)cccc1C | ng/mL | 680
CCN(CC)CC(=O)Nc1c(C)cccc1C | ng/mL | 3100

Numbers sourced from ChEMBL document CHEMBL3272005.
